Target: Glucocorticoid receptor (Homo sapiens)
Test: GR-GFP Redistribution (AID 450); also: potency is read from the fitted curve at half-maximal effect
Conditions: U2OS GR-GFP nuclear translocation, laser cytometry, 2 h
Active and inactive are the calls of the source.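 The calls were made as follows: active = compounds whose dose series gives a full or clear partial fitted curve of increased nuclear translocation; inconclusive = weak partial curve or effect only at the top dose; inactive = no dose-dependent translocation response.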
Experimental readout: Potency

Q) What value of measured Potency is listed for `N#CCCn1c(=O)c(-c2cc(F)cc(F)c2)nc2cnc(Nc3ccccc3)nc21` ?
A) > 9.22 µM (inactive)

Q) What value of measured Potency is listed for `CCNc1ncc2nc(-c3ccc(F)cc3)c(=O)n(-c3ccc(OC)cc3)c2n1` ?
A) > 9.22 µM (inactive)

Q) What value of measured Potency is listed for `CN(C)c1ncc2nc(-c3cc(F)cc(F)c3)c(=O)n(-c3ccccc3)c2n1` ?
A) > 9.22 µM (inactive)

Q) What value of measured Potency is listed for `c1ccc(CNc2ncnc3ccc(-c4ccoc4)cc23)cc1` ?
A) > 46 µM (inactive)

Q) What value of measured Potency is listed for `COc1cccc(Cn2c(=O)c(-c3cc(F)cc(F)c3)nc3cnc(N4CCOCC4)nc32)c1` ?
A) > 9.22 µM (inactive)

Q) What value of measured Potency is listed for `O=c1c(-c2cc(F)cc(F)c2)nc2cnc(N3CCOCC3)nc2n1CCc1ccccc1` ?
A) > 9.22 µM (inactive)

Q) What value of measured Potency is listed for `CN(C)C(=O)c1ccc(-c2nc(N(C)Cc3ccco3)c3ccccc3n2)cc1` ?
A) > 46 µM (inactive)

Q) What value of measured Potency is listed for `COc1cccc(Cn2c(=O)cnc3cnc(N4CCN(C)CC4)nc32)c1` ?
A) > 9.22 µM (inactive)

Q) What value of measured Potency is listed for `FC(F)(F)c1ccccc1-c1cncnc1-n1ccnc1` ?
A) > 46 µM (inactive)

Q) What value of measured Potency is listed for `O=c1c(-c2ccc(Cl)cc2)nc2cnc(N3CCOCC3)nc2n1C1CC1` ?
A) > 9.22 µM (inactive)

Q) What value of measured Potency is listed for `Cn1c(=O)c(-c2ccccc2)nc2cnc(N3CCNCC3)nc21` ?
A) > 9.22 µM (inactive)

Q) What value of measured Potency is listed for `COCCn1c(=O)cnc2cnc(N3CCOCC3)nc21` ?
A) > 9.22 µM (inactive)

Q) What value of measured Potency is listed for `O=c1c(-c2cc(F)cc(F)c2)nc2cnc(Oc3ccccc3)nc2n1C[C@H]1CCCO1` ?
A) > 9.22 µM (inactive)

Q) What value of measured Potency is listed for `c1cncc(-c2nc(NCCN3CCOCC3)c3ccccc3n2)c1` ?
A) > 46 µM (inactive)

Q) What value of measured Potency is listed for `Cc1cccc(CNc2cc(-c3cccc(NS(C)(=O)=O)c3)ncn2)c1` ?
A) > 46 µM (inactive)

Q) What value of measured Potency is listed for `O=c1c(-c2ccccc2)nc2cnc(N3CCOCC3)nc2n1Cc1ccc(F)cc1` ?
A) > 9.22 µM (inactive)

Q) What value of measured Potency is listed for `CS(=O)(=O)c1ccc(Cn2c3c(c4cc(F)cc(F)c42)CCC[C@H]3CC(=O)O)cc1` ?
A) > 46 µM (inactive)

Q) What value of measured Potency is listed for `CN(C)Cc1ccccc1-c1nccc(NCc2cccs2)n1` ?
A) > 46 µM (inactive)

Q) What value of measured Potency is listed for `N#Cc1cccc(-c2nc(NCc3ccccc3)c3ccccc3n2)c1` ?
A) > 46 µM (inactive)

Q) What value of measured Potency is listed for `CCNc1ncc2nc(C)c(=O)n(CCOC)c2n1` ?
A) > 9.22 µM (inactive)

Q) What value of measured Potency is listed for `CN(C)c1ncc2nc(-c3ccccc3)c(=O)n(CCC#N)c2n1` ?
A) > 9.22 µM (inactive)

Q) What value of measured Potency is listed for `COc1cccc(Cn2c(=O)cnc3cnc(Nc4ccccc4)nc32)c1` ?
A) > 46 µM (inactive)

Q) What value of measured Potency is listed for `COc1ccccc1CNc1ncnc2ccc(-c3ccc4c(c3)OCO4)cc12` ?
A) > 46 µM (inactive)

Q) What value of measured Potency is listed for `COc1cccc(-c2ccc3ncnc(NCc4ccccc4OC)c3c2)c1` ?
A) > 46 µM (inactive)

Q) What value of measured Potency is listed for `COc1cccc(Cn2c(=O)c(-c3ccc(F)c(F)c3)nc3cncnc32)c1` ?
A) > 9.22 µM (inactive)

Q) What value of measured Potency is listed for `O=c1c(-c2ccc(F)cc2)nc2cnc(Nc3ccccc3)nc2n1Cc1cccs1` ?
A) > 9.22 µM (inactive)

Q) What value of measured Potency is listed for `CN1CCN(c2ncc3nc(-c4cccs4)c(=O)n(Cc4ccc(F)cc4)c3n2)CC1` ?
A) > 9.22 µM (inactive)

Q) What value of measured Potency is listed for `COc1ncc2nc(CCc3ccccc3)c(=O)n(Cc3ccc(F)cc3)c2n1` ?
A) > 9.22 µM (inactive)

Q) What value of measured Potency is listed for `Cc1ccccc1-c1nc(-n2ccnc2)c2ccccc2n1` ?
A) > 46 µM (inactive)

Q) What value of measured Potency is listed for `COc1cccc(Nc2ncc3nc(CCc4ccccc4)c(=O)n(C4CC4)c3n2)c1` ?
A) > 9.22 µM (inactive)

Q) What value of measured Potency is listed for `CN1CCN(c2ccnc(-c3cccnc3)n2)CC1` ?
A) > 46 µM (inactive)

Q) What value of measured Potency is listed for `N#Cc1cccc(-c2cncnc2NCc2cccnc2)c1` ?
A) > 46 µM (inactive)

Q) What value of measured Potency is listed for `O=c1c(-c2ccc(F)c(F)c2)nc2cncnc2n1Cc1ccccc1Cl` ?
A) > 9.22 µM (inactive)

Q) What value of measured Potency is listed for `O=c1cnc2cnc(Oc3cccc(Cl)c3)nc2n1C1CC1` ?
A) > 9.22 µM (inactive)

Q) What value of measured Potency is listed for `COc1ccc(Oc2ncc3nc(-c4cccs4)c(=O)n(Cc4cccc(OC)c4)c3n2)cc1` ?
A) > 9.22 µM (inactive)

Q) What value of measured Potency is listed for `COc1ncc2nc(-c3ccc(Cl)cc3)c(=O)n(CCc3ccccc3)c2n1` ?
A) > 9.22 µM (inactive)

Q) What value of measured Potency is listed for `COc1ncc2nc(-c3cc(F)cc(F)c3)c(=O)n(Cc3cccs3)c2n1` ?
A) > 9.22 µM (inactive)

Q) What value of measured Potency is listed for `COc1cccc(Cn2c(=O)c(-c3ccccc3)nc3cnc(OC)nc32)c1` ?
A) > 9.22 µM (inactive)

Q) What value of measured Potency is listed for `COc1cccc(-c2nc(N3CCNCC3)c3ccccc3n2)c1` ?
A) > 46 µM (inactive)

Q) What value of measured Potency is listed for `N#CCCn1c(=O)c(-c2ccc(Cl)cc2)nc2cnc(Nc3ccccc3)nc21` ?
A) > 9.22 µM (inactive)

Q) What value of measured Potency is listed for `N#CCCn1c(=O)c(-c2cccs2)nc2cnc(Oc3ccccc3)nc21` ?
A) > 9.22 µM (inactive)

Q) What value of measured Potency is listed for `COc1ccccc1OC[C@H](O)COC(N)=O` ?
A) > 20.6 µM (inactive)

Q) What value of measured Potency is listed for `Cn1c(=O)c(-c2ccc(F)cc2)nc2cnc(Oc3ccccc3)nc21` ?
A) > 9.22 µM (inactive)

Q) What value of measured Potency is listed for `COCCn1c(=O)c(C)nc2cnc(Oc3cccc(Cl)c3)nc21` ?
A) > 9.22 µM (inactive)

---

Assay: qHTS Assay for Lipid Storage Modulators (AID 1519)
Conditions: Drosophila S3 cells, BODIPY lipid droplet/cell ratio, laser cytometry; measured here: lipid channel max response; cells loaded with oleic acid
Inconclusive results are not listed.
Experimental readout: max response
Answer with the figure and its unit, nothing else.

Q) What value of measured max response is listed for `CC(C)NC(=O)N1CC2(CCN(C(=O)c3cc(C(F)(F)F)cc(C(F)(F)F)c3)CC2)C1` ?
A) 13.7%

Q) What value of measured max response is listed for `COc1ccccc1CN1CC[C@@]2(CCCN(C(=O)c3ccncc3)C2)C1` ?
A) 14.1%

Q) What value of measured max response is listed for `NC(=NCc1ccc(Cl)c(Cl)c1)NC(=O)c1nc(Cl)c(N)nc1N` ?
A) -2.51%

Q) What value of measured max response is listed for `N#Cc1ccc(CN2CC[C@@]3(CCCN(S(=O)(=O)c4ccccc4)C3)C2)cc1` ?
A) 7.48%

Q) What value of measured max response is listed for `N#Cc1ccc(CN2CCC3(CC2)CCN(C(=O)c2ccco2)CC3)cc1` ?
A) 24%

---

Assay: NFAT Signaling Pathway (AID 444);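 also: carbachol stimulus at about its EC50 of 1 µM final; % is scaled to controls: 0 for no effect and ±100 for the full control effect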
Settings: Jurkat NFAT-bla M1, carbachol, beta-lactamase ratio, 5 h; at 7.69 µM (top of the series) unless noted
Results filed as inconclusive are left out. Active and inactive are the calls of the source. Calls come from the whole dose curve; as a rule, active = well fitted curve in either direction with a large enough effect (not every such curve was filed as active); inconclusive = small, poorly fitted or top-dose-only effect, or another doubt; inactive = flat fitted curve, though single readings scatter.
Answer each item with its documented activity change, negative = inhibition.

Q) What value of measured activity change, negative = inhibition is listed for `CN(C)C(=O)c1ccc(-c2ccc3ncnc(NCCN4CCOCC4)c3c2)cc1` ?
A) 6.26% (inactive)

Q) What value of measured activity change, negative = inhibition is listed for `COc1ccccc1-c1ccc2ncnc(NCCNC(C)=O)c2c1` ?
A) 3.1% (inactive)

Q) What value of measured activity change, negative = inhibition is listed for `O=c1c(-c2ccc(Cl)cc2)nc2cnc(N3CCOCC3)nc2n1C1CC1` ?
A) -4.43% (inactive)

Q) What value of measured activity change, negative = inhibition is listed for `Cn1cc(C(F)(F)F)nc1-c1ccc(OC[C@@H](O)CNCCOc2ccc(O)c(C(N)=O)c2)cc1` ?
A) -4.88% [at 38 µM] (inactive)

Q) What value of measured activity change, negative = inhibition is listed for `Cc1[nH]ccc2c1[nH]c1cc(=O)ccc12` ?
A) -37.6% [at 17.2 µM] (inactive)

Q) What value of measured activity change, negative = inhibition is listed for `N#Cc1cccc(-c2nc(NCc3cccs3)c3ccccc3n2)c1` ?
A) -16.7% (inactive)

Q) What value of measured activity change, negative = inhibition is listed for `COc1ccc(C(=O)N2CCC[C@@]3(CCN(CC(C)C)C3)C2)cc1` ?
A) -2.79% (inactive)

Q) What value of measured activity change, negative = inhibition is listed for `COc1ccc(-n2c(=O)c(-c3ccc(F)cc3)nc3cnc(OC)nc32)cc1` ?
A) 8.51% (inactive)

Q) What value of measured activity change, negative = inhibition is listed for `CN1CCN(c2ncnc3ccc(-c4ccoc4)cc23)CC1` ?
A) -23.1% (inactive)

Q) What value of measured activity change, negative = inhibition is listed for `O=c1c(-c2cc(F)cc(F)c2)nc2cnc(Oc3ccccc3)nc2n1C[C@H]1CCCO1` ?
A) -1.84% (inactive)

Q) What value of measured activity change, negative = inhibition is listed for `COc1ccc(C(=O)N2CCC[C@@]3(CCN(Cc4ccncc4)C3)C2)cc1` ?
A) 4.96% (inactive)

Reference source for all entries: PubChem BioAssay (NCATS)
